These data points were gathered from paper PMC4780864.

# ASSAYED_TARGET: AAK1 (Homo sapiens)
# Sequence (Q2M2I8 27-365 limits assumed): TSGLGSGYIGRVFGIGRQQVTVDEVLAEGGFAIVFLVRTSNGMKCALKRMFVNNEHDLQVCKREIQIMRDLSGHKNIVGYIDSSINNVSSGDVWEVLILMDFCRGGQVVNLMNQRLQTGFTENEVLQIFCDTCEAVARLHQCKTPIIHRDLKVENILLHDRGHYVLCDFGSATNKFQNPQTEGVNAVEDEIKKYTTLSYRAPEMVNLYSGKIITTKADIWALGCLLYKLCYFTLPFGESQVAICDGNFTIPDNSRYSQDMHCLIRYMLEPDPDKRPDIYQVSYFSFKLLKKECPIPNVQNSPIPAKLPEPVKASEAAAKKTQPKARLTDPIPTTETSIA
# ASSAY_PROTOCOL: biochemical
# Set-up: kinase domain; Thermal shift assay (DSF, SYPRO Orange), 2 uM kinase domain, mean delta Tm of triplicates versus DMSO
# APPLIED_CONDITIONS: read-out: AAK1
Each entry below lists one item and its recorded ΔTm at 12.5 µM value.
Could you give me the number in °C? Just the number is fine.

These recorded examples may help you get a feel for the data.
CN(c1ccccc1CNc1nc(Nc2ccc3c(c2)CC(=O)N3)ncc1C(F)(F)F)S(C)(=O)=O [PF 431396] | 4.81
C=CCN(/C=C1/C(=O)O[C@H](COC)[C@@]2(C)C1=C(O)C(=O)C1=C2[C@H](OC(C)=O)C[C@]2(C)C(=O)CC[C@@H]12)CC=C [Sonolisib] | -0.183
CC(C)(C)c1cc(NC(=O)Nc2ccc(-c3cn4c(n3)sc3cc(OCCN5CCOCC5)ccc34)cc2)no1 [Quizartinib] | 0.43
Cn1c(=O)n(-c2ccc(C(C)(C)C#N)cc2)c2c3cc(-c4cnc5ccccc5c4)ccc3ncc21 [Dactolisib] | 0.747
CN1CCN(c2nc(C3=C(c4c[nH]c5ccccc45)C(=O)NC3=O)c3ccccc3n2)CC1 [Sotrastaurin] | 1.63

For the compound COc1cc(Nc2ncc(F)c(Nc3ccc4c(n3)NC(=O)C(C)(C)O4)n2)cc(OC)c1OC [Tamatinib] , give its reported ΔTm at 12.5 µM.
7

For the compound COc1cc(CCc2cc(NC(=O)c3ccc(N4C[C@@H](C)N[C@@H](C)C4)cc3)n[nH]2)cc(OC)c1 [AZD4547] , give its reported ΔTm at 12.5 µM.
3.26

For the compound N#CC[C@H](C1CCCC1)n1cc(-c2ncnc3[nH]ccc23)cn1 [Ruxolitinib] , give its reported ΔTm at 12.5 µM.
6.18

For the compound CC[C@H](CO)Nc1nc(NCc2ccccc2)c2ncn(C(C)C)c2n1 [Seliciclib] , give its reported ΔTm at 12.5 µM.
0.393

For the compound CC(=O)Nc1cccc(-n2c(=O)n(C3CC3)c(=O)c3c(Nc4ccc(I)cc4F)n(C)c(=O)c(C)c32)c1 [Trametinib] , give its reported ΔTm at 12.5 µM.
0.367

For the compound Cc1cnc(NC(=O)Nc2cc(Br)c(C)cc2OC[C@@H]2CNCCO2)cn1 [Rabusertib] , give its reported ΔTm at 12.5 µM.
1.55

For the compound Cc1cc(Nc2nc(N[C@@H](C)c3ncc(F)cn3)ncc2Cl)[nH]n1 [AZD1480] , give its reported ΔTm at 12.5 µM.
4.44

For the compound CNC(=O)c1c(F)cccc1Nc1nc(Nc2cc3c(ccn3C(=O)CN(C)C)cc2OC)nc2[nH]ccc12 [GSK1838705A] , give its reported ΔTm at 12.5 µM.
0.143

====

# ASSAYED_TARGET: GAK (Homo sapiens)
# Construct: catalytic domain-containing construct
# Sequence (O14976 1-1311): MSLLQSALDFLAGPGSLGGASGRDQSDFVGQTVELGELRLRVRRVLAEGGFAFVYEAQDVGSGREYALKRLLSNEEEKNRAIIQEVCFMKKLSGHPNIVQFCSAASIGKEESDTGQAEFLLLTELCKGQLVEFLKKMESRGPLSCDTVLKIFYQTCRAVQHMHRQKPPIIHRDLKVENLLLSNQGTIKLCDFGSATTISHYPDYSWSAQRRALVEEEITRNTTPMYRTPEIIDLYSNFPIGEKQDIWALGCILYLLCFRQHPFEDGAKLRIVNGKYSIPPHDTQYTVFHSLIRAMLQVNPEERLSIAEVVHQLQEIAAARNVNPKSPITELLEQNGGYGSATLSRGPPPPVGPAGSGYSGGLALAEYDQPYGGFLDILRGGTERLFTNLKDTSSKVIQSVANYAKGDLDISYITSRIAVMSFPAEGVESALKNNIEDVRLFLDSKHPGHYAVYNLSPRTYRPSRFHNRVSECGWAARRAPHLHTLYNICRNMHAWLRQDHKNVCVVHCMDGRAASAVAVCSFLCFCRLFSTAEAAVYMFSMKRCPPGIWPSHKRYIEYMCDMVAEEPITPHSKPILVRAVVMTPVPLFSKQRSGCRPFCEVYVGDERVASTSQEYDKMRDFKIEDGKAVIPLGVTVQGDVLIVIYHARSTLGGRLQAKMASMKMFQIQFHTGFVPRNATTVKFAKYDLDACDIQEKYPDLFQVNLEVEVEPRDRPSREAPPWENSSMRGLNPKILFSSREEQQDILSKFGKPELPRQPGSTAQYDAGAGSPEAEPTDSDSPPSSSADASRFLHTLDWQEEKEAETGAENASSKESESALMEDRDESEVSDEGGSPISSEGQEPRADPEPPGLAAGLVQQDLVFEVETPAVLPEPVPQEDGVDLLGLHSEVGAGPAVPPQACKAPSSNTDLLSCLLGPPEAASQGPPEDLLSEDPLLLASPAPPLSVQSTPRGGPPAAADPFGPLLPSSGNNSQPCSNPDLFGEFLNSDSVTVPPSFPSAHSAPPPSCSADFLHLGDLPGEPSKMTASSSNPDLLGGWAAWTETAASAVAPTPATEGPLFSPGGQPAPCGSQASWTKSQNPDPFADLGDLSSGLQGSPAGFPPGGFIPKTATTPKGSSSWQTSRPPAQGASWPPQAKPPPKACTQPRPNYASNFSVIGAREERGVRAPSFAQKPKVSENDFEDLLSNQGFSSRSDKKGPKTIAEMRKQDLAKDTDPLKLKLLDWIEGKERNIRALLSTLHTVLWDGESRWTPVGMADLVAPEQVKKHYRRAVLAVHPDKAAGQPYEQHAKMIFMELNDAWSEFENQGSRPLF
# ASSAY_PROTOCOL: biochemical
# Design: Thermal shift assay (DSF, SYPRO Orange), 2 uM kinase domain, mean delta Tm of triplicates versus DMSO
# APPLIED_CONDITIONS: read-out: GAK
Note to self: ΔTm at 12.5 µM under 2 °C means met, ties and anything higher get not met.

These recorded examples may help you get a feel for the data.
COc1cc(CCc2cc(NC(=O)c3ccc(N4C[C@@H](C)N[C@@H](C)C4)cc3)n[nH]2)cc(OC)c1 | met
CC(C)(C)c1cc(NC(=O)Nc2ccc(-c3cn4c(n3)sc3cc(OCCN5CCOCC5)ccc34)cc2)no1 | met
CCCS(=O)(=O)Nc1ccc(F)c(C(=O)c2c[nH]c3ncc(-c4ccc(Cl)cc4)cc23)c1F | not met
CN(c1ccccc1CNc1nc(Nc2ccc3c(c2)CC(=O)N3)ncc1C(F)(F)F)S(C)(=O)=O | not met
Oc1c2ccccc2c2c3c(cccc13)N=N2 | met

Lab note: confirm whether the reported ΔTm at 12.5 µM for this compound is below 2 °C, equality not counting. compound: NC1(c2ccc(-c3nc4ccn5c(=O)[nH]nc5c4cc3-c3ccccc3)cc2)CCC1
met
